From: PubChem BioAssay (NCATS)

# Tested on: PC15
# EXPERIMENTAL_PROTOCOL: qHTS profiling for inhibitors of Plasmodium falciparum proliferation (AID 504749); further: nearly all actives have a fitted effect of over 60% in size
# ASSAY_CONTEXT: P. falciparum in erythrocytes, SYBR Green DNA, 72 h; series mostly up to 28.7 µM
Results filed as inconclusive are left out. Activity calls are given as the source filed them. The call rests on the fitted dose curve; in most records, active means well fitted inhibition curve with a large enough effect; inconclusive means small, poorly fitted or top-dose-only effect; inactive means flat fitted curve, though single readings scatter.
Possible outcomes: True (active), False (inactive)

>>> class_name("CCN(CC)C(=O)c1cccnc1")
"False"
>>> class_name("CC12CCC(C1)C(C)(C)C2=O (stereo not given)")
"False"
>>> class_name("Cc1cc(=O)c(C(=O)N[C@@H](C(=O)N[C@@H]2C(=O)N3C(C(=O)O)=C(CSc4nnnn4C)CS[C@H]23)c2ccc(O)cc2)c[nH]1")
"False"
>>> class_name("CC(=O)Nc1c(I)c(C(=O)O)c(I)c(N(C)C(C)=O)c1I")
"False"
>>> class_name("CCCCCCCCCC(=O)NO")
"False"
>>> class_name("C=CCN1CCCC1CNC(=O)c1cc(S(N)(=O)=O)cc(OC)c1OC (stereo not given)")
"False"
>>> class_name("NC(N)=NCC1COc2ccccc2O1 (stereo not given)")
"False"
>>> class_name("CC(=O)NCCCS(=O)(=O)O")
"False"
>>> class_name("OCc1ccccc1")
"True"
>>> class_name("N[C@H](CC(=O)O)C(=O)O")
"False"
